Test system: MCF7
Test: Induction of apoptosis in human MCF7 cells expressing scrambled siRNA assessed as necrotic cells at 1 uM after 24 hrs by Annexin-V-FITC/propidium iodide staining based flow cytometry (reference value: 0.16%)
Type: functional
Here, each record is paired with measured Activity data.

{"Compound": "CCN(CC)CCNC(=O)c1ccc(C(CC)(CC)c2ccc(OCSC)c(C)c2)n1CC", "Activity (%)": 0.34}
{"Compound": "C=C1/C(=C\\C=C2/CCC[C@]3(C)[C@@H]([C@H](C)CCCC(C)(C)O)CC[C@@H]23)C[C@@H](O)C[C@@H]1O [CALCITRIOL]", "Activity (%)": 0.33}
{"Compound": "CCN(CC)CCNC(=O)c1ccc(C(CC)(CC)c2ccc(OCSc3ccccc3)c(C)c2)n1CC", "Activity (%)": 0.35}
{"Compound": "CCN(CC)CCNC(=O)c1cc(C(CC)(CC)c2ccc(OCSC)c(C)c2)cn1CC", "Activity (%)": 0.39}
{"Compound": "CCN(CC)CCNC(=O)c1cc(C(CC)(CC)c2ccc(OCS(=O)(=O)c3ccccc3)c(C)c2)cn1CC", "Activity (%)": 0.46}
{"Compound": "CCN(CC)CCNC(=O)c1cc(C(CC)(CC)c2ccc(OCSc3ccccc3)c(C)c2)cn1CC", "Activity (%)": 0.9}
{"Compound": "CCn1c(C(=O)N[C@@H](C)CO)ccc1C(CC)(CC)c1ccc(OCC(O)C(C)(C)C)c(C)c1 (some centres not stated)", "Activity (%)": 0.26}

Attribution: ChEMBL document CHEMBL4270638
